meta.source: PubChem BioAssay AID1205

# protocol: DSSTox (CPDBAS) Carcinogenic Potency Database Summary MultiCellCall Results
# condition-description: animal carcinogenicity bioassays, multi-cell call summary
# Text: The Carcinogenic Potency Database (CPDB) is a unique and widely used international resource of the results of over 6500 chronic, long-term animal cancer tests on over 1500 chemical substances. The CPDB provides easy access to the bioassay literature, with qualitative and quantitative analyses of both positive and negative experiments that have been published over the past 50 years in the general literature and by the National Cancer Institute/National Toxicology Program. […]
Activity calls are given as the source filed them.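 Rule for the calls: active = tumour findings in long-term animal cancer tests in more than one sex, species or organ; inactive = no tumour finding and more than one negative test.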
Outcome (select one): active, inactive

Worked examples, 3 compounds total:
compound	class-label
C=CC	inactive
CC(C)(CCCOc1ccc(OCCCC(C)(C)C(=O)O)c(-c2ccccc2)c1)C(=O)O	active
CC(Cl)CCl (stereo unspecified)	active

State the result this test recorded for "CCCCCNN" .
active

State the result this test recorded for CC(CN1CC(=O)NC(=O)C1)N1CC(=O)NC(=O)C1 (stereo unspecified) .
active

State the result this test recorded for C=C1C(C)(C)[C@@]2(Cl)C(Cl)[C@]1(Cl)C(Cl)(Cl)C2(Cl)Cl (stereo partly specified) .
active

State the result this test recorded for "CCCN=[N+]([O-])CCC" .
active

State the result this test recorded for "CN(C)CCOc1ccc(/C(=C(/CCCl)c2ccccc2)c2ccccc2)cc1" .
inactive
